experimentalDetails: modulators of HCV replicon luciferase signal, primary screen, HCV replication inhibitor project, Huh7 cells, luciferase reporter (AID 1109);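 also: huh7 hepatoma cells harbouring a luciferase neomycin HCV replicon reporter; luciferase luminescence as measure of HCV replicon replication; test concentration not given here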
statedConditions: 48 h, higher = more signal
resultType: z-score
Output: the number by itself.

Look over these answered cases.
// fetch z-score given entry COc1ccc(NN2C(C(O)c3ccc([N+](=O)[O-])cc3)C=CC3C(=O)N(C4CCCCC4)C(=O)C32)cc1 (stereo unspecified)
0.376

Please indicate z-score recorded for C[N+](C)(C)CCCCNC(=O)[C@H]1C[C@H]2C(=O)N[C@@H](Cc3ccccc3)C(=O)N2[C@H]1c1ccc(O)cc1
-0.72

Determine from records and report z-score for CCC(CC)C(O)C1C=CC2C(=O)N(C)C(=O)C2N1Nc1ccccc1 (stereo unspecified)
0.347

Look up z-score of C=CCOC(=O)[C@H]1[C@@H]2C(=O)O[C@@H](c3ccccc3)[C@@H](c3ccccc3)N2[C@@H](c2ccc(OCCOC(=O)[C@@H]3C[C@@H]4C(=O)N[C@@H](CCCCN(C)C)C(=O)N4[C@@H]3c3ccc(O)cc3)cc2)[C@]12C(=O)Nc1ccc(I)cc12 and report it.
-2.99

Name the recorded z-score of the compound listed here: O=C(O)[C@@]1(CCS(=O)(=O)c2ccccc2)COC(c2ccc(OCCCO)cc2)=N1
-0.615

Note z-score for the compound shown: [N-]=[N+]=NCc1ccccc1[C@@H]1OC(c2ccc(OCCCO)cc2)=N[C@]1(CCS(=O)(=O)c1ccccc1)C(=O)NCCN1CCOCC1
-0.351

In one line, give reported z-score of the entry O=C1NC(=O)C2C1C=CC(C(O)C(c1ccccc1)c1ccccc1)N2Nc1ccc(Cl)cc1Cl (stereo unspecified) .
-1.75

Given the compound C=CCC(OC(C)=O)[C@@H]1[C@@H](N(Cc2ccc(-c3cccc(C(F)(F)F)c3)o2)C(=O)Cc2ccc(F)cc2)c2cc(OCCCO)ccc2N1C(=O)Cc1ccc(OC)cc1 (stereo partly specified) , write its reported z-score.
-1.36

Input COc1ccc([Si](C)(C)[C@H]2[C@H](CC(=O)N3CCC[C@H]3CO)O[C@@]3(C(=O)N(Cc4cccc(N5C(=O)c6cccc7cccc5c67)c4)c4ccccc43)[C@@H]2C)cc1 , output reported z-score.
-3.12

Return z-score for the following compound: CS(=O)(=O)CCOC(=O)C1=CC(CCCO)=CC(c2ccc(CN3CCCC3)cc2)N(Cc2cc3c(cc2Br)OCO3)C=C1C(=O)OCCS(C)(=O)=O (stereo unspecified)
-2.33

Now consider the entry below.
Provide measured z-score value, entry: O=C1OCCC/C=C\[C@H]2OC34C=CCN(c5ccc6ccccc6c5)C(=O)[C@H]3N(CCCCCCO)C(=O)[C@@H]4C12 (stereo partly specified)
-0.625
